assay: pH-dependency of solubility at 37°C; format: physicochemical; conditions: 0.1m hcl, pH 1.2, 37°C, 0.1M HCl pH1.2, 1 h
MEASUREMENT_KIND: solubility at 1 h
Could you give the number and then its unit, please?

Sample N#CC[C@H](C1CCCC1)n1cc(-c2ncnc3[nH]ccc23)cn1 [Ruxolitinib besylate, Ruxolitinib benzenesulfonate] ; solubility at 1 h observed: 9600 µg/mL

---

experiment: pH-dependency of solubility at 37°C; type: physicochemical; conditions: 20mm naoac, pH 4.5, 37°C, 20mM (NaOAc / NaAc) -pH 4.5, 1 h
MEASUREMENT_KIND: solubility at 1 h (µg/mL)
Write the answer as a number in µg/mL, unit excluded.

Sample N#CC[C@H](C1CCCC1)n1cc(-c2ncnc3[nH]ccc23)cn1 [Ruxolitinib besylate, Ruxolitinib benzenesulfonate] ; solubility at 1 h observed: 7100

---

experiment: pH-dependency of solubility at 37°C; assay type: physicochemical; conditions: 0.1m hcl, pH 1.2, 37°C, 0.1M HCl pH1.2, 0.5 h
MEASUREMENT_KIND: solubility at 0.5 h

Sample N#CC[C@H](C1CCCC1)n1cc(-c2ncnc3[nH]ccc23)cn1 [Ruxolitinib besylate, Ruxolitinib benzenesulfonate] ; solubility at 0.5 h observed: 9600 µg/mL

---

assay: pH-dependency of solubility at 37°C; type: physicochemical; settings: 50mm kh2po4, pH 6.8, 37°C, 50mM KH2PO4 pH 6.8, 1 h
MEASUREMENT_KIND: solubility at 1 h (µg/mL)
Write the answer as a number in µg/mL, unit excluded.

Sample N#CC[C@H](C1CCCC1)n1cc(-c2ncnc3[nH]ccc23)cn1 [Ruxolitinib besylate, Ruxolitinib benzenesulfonate] ; solubility at 1 h observed: 7000
